biological target: Go (Bos taurus); construct: proteins were extracted from bovine cerebral cortical membranes; from tissue; host or cells: bovine brain (cerebral cortical membranes); assay: steady state GTPase activity of Go in phospholipid vesicles; assay type: biochemical, bovine; conditions: 100 μg/ml amine; 15 min at 20° C.
Sequence (P08239 2-354 limits assumed): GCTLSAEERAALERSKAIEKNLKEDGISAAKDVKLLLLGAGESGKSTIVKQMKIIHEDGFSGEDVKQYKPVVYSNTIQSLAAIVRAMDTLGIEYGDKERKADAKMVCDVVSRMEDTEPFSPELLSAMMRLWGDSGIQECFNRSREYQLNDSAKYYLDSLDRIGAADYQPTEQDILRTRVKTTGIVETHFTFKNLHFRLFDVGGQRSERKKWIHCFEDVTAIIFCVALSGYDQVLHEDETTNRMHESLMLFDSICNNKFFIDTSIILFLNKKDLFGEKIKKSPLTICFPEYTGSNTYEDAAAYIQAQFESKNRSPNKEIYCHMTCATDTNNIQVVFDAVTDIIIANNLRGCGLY
Sequence (P62871 2-340 partner limits assumed): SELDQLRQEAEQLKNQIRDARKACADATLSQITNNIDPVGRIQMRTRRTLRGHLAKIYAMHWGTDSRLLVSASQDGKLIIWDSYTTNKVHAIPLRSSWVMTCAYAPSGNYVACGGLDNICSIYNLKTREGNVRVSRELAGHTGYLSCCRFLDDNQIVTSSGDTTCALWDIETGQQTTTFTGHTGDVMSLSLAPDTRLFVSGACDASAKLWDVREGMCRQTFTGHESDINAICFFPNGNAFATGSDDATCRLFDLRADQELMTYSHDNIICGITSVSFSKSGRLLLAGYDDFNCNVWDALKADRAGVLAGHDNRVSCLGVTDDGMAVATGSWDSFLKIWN
Sequence (P63212 2-68 partner limits assumed): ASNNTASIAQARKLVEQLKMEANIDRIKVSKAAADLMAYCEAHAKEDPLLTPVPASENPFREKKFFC
measured.property: Turnover number Go 100 μg/ml (min⁻¹)
Provide the reading as a plain figure in min⁻¹.

Reference set (3 entries):
[
  {
    "compound": "CCCCCCCCCCCCC[N+](C)(C)Cc1ccccc1 [BAC (C-12), benzalkonium chloride]",
    "measured.property": "Turnover number Go 100 μg/ml",
    "value.measured": 0.8
  },
  {
    "compound": "CCCC[N+](CCCC)(CCCC)Cc1ccccc1.[Cl-] [BzBu3 NCl, reference compound]",
    "measured.property": "Turnover number Go 100 μg/ml",
    "value.measured": 0.07
  },
  {
    "compound": "CCCCCCCCCCCCCCCCCC[N+](C)(C)Cc1ccccc1.[Cl-] [BAC (C18 ), reference compound]",
    "measured.property": "Turnover number Go 100 μg/ml",
    "value.measured": 0.3
  }
]

Query: Tell me its Turnover number Go 100 μg/ml given CCCCCCCCCCCCN as the entry.
Reply: 0.61

Query: Tell me its Turnover number Go 100 μg/ml given CCCCCCCCCCCCCCCC[N+](C)(C)Cc1ccccc1.[Cl-] [BAC (C16 ), reference compound] as the entry.
Reply: 0.08

Query: Tell me its Turnover number Go 100 μg/ml given CCCCCCCCCCCCCC[N+](C)(C)Cc1ccccc1.[Cl-] [BAC (C14), reference compound] as the entry.
Reply: 0.2

Query: Tell me its Turnover number Go 100 μg/ml given CCCCCCCCCCCC[N+](C)(C)C.[Cl-] [C12 Me3 NCl, reference compound] as the entry.
Reply: 0.5

----------
pEC50 for assorted compounds
target: UniProt:P63092; assay: steady state GTPase activity of Gs; format: biochemical; settings: Table IV; read-out: Gs af. (apparent affinity, estimated by EC50 of GTPase activity)
Sequence (P63092 whole entry): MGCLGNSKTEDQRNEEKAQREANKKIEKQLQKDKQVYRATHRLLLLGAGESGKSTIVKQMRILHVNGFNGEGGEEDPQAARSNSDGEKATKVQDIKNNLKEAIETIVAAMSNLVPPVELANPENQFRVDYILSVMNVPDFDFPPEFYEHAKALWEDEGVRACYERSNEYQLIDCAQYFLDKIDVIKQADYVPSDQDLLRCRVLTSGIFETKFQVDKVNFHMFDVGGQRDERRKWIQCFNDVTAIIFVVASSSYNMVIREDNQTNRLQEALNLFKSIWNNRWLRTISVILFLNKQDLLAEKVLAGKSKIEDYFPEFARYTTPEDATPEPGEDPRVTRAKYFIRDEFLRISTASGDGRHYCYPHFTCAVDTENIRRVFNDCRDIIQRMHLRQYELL
pEC50: −log10 of the molar value.

[
  {
    "compound": "CC[C@H](C)[C@H](N)C(=O)N[C@@H](CC(N)=O)C(=O)N[C@@H](Cc1ccc(O)cc1)C(=O)N[C@@H](CCCCN)C(=O)N[C@@H](C)C(=O)N[C@@H](CC(C)C)C(=O)N[C@@H](C)C(=O)N[C@@H](C)C(=O)N[C@@H](CC(C)C)C(=O)N[C@@H](C)C(=O)N[C@@H](CCCCN)C(=O)N[C@@H](CCCCN)C(=O)N[C@H](C(=O)N[C@@H](CC(C)C)C(N)=O)[C@@H](C)CC [ER13]",
    "pEC50": "5.00 to 5.52"
  }
]

Query: Give reported pEC50 for CC[C@H](C)[C@H](N)C(=O)N[C@@H](CC(N)=O)C(=O)N[C@@H](CC(C)C)C(=O)N[C@@H](CCCCN)C(=O)N[C@@H](C)C(=O)N[C@@H](CC(C)C)C(=O)N[C@@H](C)C(=O)N[C@@H](C)C(=O)N[C@@H](CC(C)C)C(=O)N[C@@H](C)C(=O)N[C@@H](CCCCN)C(=O)N[C@@H](CCCCN)C(=O)N[C@@H](CC(C)C)C(=O)N[C@@H](CC(C)C)C(N)=O [MAS03] (UniProt:P63092)
Reply: 4.52 to 5.00
